- target-or-test-system: HIV-1 Env of isolate MGRM-G-017 (subtype G), on pseudovirus (HIV-1)
- assay-overview: cell-based or functional assay
I'd be grateful if you could share measured IC50 (µg/mL), neutralization of pseudovirus for these entries.

Which value of IC50 (µg/mL), neutralization of pseudovirus has been reported for PGT-131 (antibody, V domains shown) VH: QVQLQESGPGLVKPSETLSLTCTVSGDSINTGHHYWGWVRQVPGKGPEWIAHIHYNTAVLHNPALKSRVTISIFTLKNLITLSLSNVTAADTAVYFCVRSGGDILYYIEWQKPHWFYPWGPGILVTVSS VL: QSALTQPPSASGSLGQSLTISCSGTGSDIGSWNFVSWYQQFPGRAPNLIIFEVNRRRSGVPDRFSGSKSGNTASLTVSGLRSEDEAEYFCSSLSGRWDIVFGGGTKVTVL in the records? > 50 µg/mL

Endpoint output: IC50 (µg/mL), neutralization of pseudovirus of PGT-127 (antibody, V domains shown) VH: QPQLQESGPGLVEASETLSLTCTVSGDSTGRCNYFWGWVRQPPGKGLEWIGSLSHCRSYYNTDWTYHNPSLKSRLTISLDTPKNQVFLRLTSVTAADTATYYCARFGGEVLVYRDWPKPAWVDLWGRGTLVVTVS VL: QSALTQPPSASGSPGQSITISCTGTSNNFVSWYQQYPGKAPKLVIYEVNKRPSGVPDRFSGSKSGSTASLTVSGLQADDEGVYYCSSLVGNWDVIFGGGTKLTVL . Value? > 50 µg/mL

Given the entry PGT-125 (antibody, V domains shown) VH: QSQLQESGPRLVEASETLSLTCNVSGESTGACTYFWGWVRQAPGKGLEWIGSLSHCQSFWGSGWTFHNPSLKSRLTISLDTPKNQVFLKLTSLTAADTATYYCARFDGEVLVYNHWPKPAWVDLWGRGIPVTVSS VL: QSALTQPPSASGSPGQSITISCNGTATNFVSWYQQFPDKAPKLIIFGVDKRPPGVPDRFSGSRSGTTASLTVSRLQTDDEAVYYCGSLVGNWDVIFGGGTTLTVL , report its measured IC50 (µg/mL), neutralization of pseudovirus. > 50 µg/mL
